The origin of these recorded values is patent US11752116B2.

# targetOrSystem: DENV-2 NS5 / IMPαΔIBB (Dengue virus type 2, UniProt P14340)
# runDescription: AlphaScreen binding of His6-NS5 to IMPαΔIBB
testReadout: pIC50
Answers are plain numbers, as −log10 of the molar value.

Ask: Notebook entry, DENV-2 NS5 / IMPαΔIBB (Dengue virus type 2, UniProt P14340) assay: pIC50 of CC1=C(/C=C/C(C)=C/C=C/C(C)=C/C(=O)Nc2ccc(O)cc2)C(C)(C)CCC1 [4-HPR, N-(4-hydroxyphenyl) retinamide] = ?
Reply: 5.80

* * *

# Test system: DENV-1
# runDescription: ADE-mediated DENV-1 infection of THP-1 cells, plaque assay
# Format: cell-based
# conditionSet: Dengue virus, DENV1, THP-1, 48 h, read-out: EC50, ADE-mediated DENV-1 infection
testReadout: EC50 (nM)
Answers are plain numbers, in nM.

Ask: // EC50 lookup, key: CC1=C(/C=C/C(C)=C/C=C/C(C)=C/C(=O)Nc2ccc(O)cc2)C(C)(C)CCC1 [4-HPR, N-(4-hydroxyphenyl) retinamide]
Reply: 850
